Consider the following compounds; for each one, report its IC50.
Tested on: MCF-7
Experiment: MTT assay cytotoxicity
Assay type: cell-based
Details: Homo sapiens, MCF7, MCF-7 (breast cancer), 72 h
Respond numerically; units are µM and should not be typed.

Given the entry O=[N+]([O-])C1=NOC2CCCCCCC12 (centres unmarked) , report its measured IC50.
35.4

How about this compound: `O=S(=O)(NC1=NOC2(CCCCCCC2)C1)c1ccc2ccccc2c1`
26.8

Consider next the compound O=[N+]([O-])C1=NOC2(CCCCCCC2)C1 [Compound 1, 3-Nitro-1-oxa-2-azaspiro[4.7]dodec-2-ene] in the same way.
58.8

Moving on to `CC(=O)Nc1ccc(S(=O)(=O)NC2=NOC3(CCCCCCC3)C2)cc1`
54.5
